Hey, just so you know, these numbers are from paper PMC9569529.

Target: MRP1 (Homo sapiens, UniProt P33527)
Sequence (P33527 whole entry): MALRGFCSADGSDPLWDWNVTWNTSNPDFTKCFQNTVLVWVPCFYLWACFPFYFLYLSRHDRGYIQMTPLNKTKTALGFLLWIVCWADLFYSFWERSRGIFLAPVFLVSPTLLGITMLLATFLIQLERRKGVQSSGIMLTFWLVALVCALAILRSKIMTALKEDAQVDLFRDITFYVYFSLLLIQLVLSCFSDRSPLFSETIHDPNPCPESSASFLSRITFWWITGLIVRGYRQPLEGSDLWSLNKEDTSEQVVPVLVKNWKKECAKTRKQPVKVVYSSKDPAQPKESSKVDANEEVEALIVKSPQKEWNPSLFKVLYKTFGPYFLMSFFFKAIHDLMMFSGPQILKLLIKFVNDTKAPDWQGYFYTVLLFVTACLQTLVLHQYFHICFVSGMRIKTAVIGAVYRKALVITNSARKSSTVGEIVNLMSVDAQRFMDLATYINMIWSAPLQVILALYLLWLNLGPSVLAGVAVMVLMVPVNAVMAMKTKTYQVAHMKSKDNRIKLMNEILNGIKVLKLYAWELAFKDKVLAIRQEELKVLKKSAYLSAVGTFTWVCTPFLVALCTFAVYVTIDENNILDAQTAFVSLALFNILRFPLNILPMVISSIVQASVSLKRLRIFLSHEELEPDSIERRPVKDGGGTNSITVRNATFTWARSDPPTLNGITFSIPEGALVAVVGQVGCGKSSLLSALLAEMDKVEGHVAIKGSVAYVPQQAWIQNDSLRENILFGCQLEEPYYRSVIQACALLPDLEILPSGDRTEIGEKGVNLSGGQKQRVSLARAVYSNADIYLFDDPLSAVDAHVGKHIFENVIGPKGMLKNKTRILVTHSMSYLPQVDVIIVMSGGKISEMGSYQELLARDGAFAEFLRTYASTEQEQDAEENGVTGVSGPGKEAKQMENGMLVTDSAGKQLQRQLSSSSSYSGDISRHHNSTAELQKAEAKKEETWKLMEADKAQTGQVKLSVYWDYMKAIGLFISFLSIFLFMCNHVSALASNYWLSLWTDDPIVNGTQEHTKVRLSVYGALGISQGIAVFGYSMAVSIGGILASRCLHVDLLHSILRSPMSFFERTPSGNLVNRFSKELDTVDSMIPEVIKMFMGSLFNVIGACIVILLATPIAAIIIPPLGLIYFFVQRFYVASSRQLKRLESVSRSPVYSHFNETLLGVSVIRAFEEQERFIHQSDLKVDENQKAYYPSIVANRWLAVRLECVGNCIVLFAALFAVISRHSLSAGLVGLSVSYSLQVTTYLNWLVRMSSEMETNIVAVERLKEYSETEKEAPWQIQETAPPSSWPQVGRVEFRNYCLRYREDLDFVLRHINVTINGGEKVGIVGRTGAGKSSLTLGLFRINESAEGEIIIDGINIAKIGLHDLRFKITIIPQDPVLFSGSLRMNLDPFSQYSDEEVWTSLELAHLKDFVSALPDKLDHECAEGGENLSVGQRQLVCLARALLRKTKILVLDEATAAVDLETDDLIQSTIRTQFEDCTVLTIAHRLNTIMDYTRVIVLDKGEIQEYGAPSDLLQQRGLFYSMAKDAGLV
Assay: Drug transporter inhibition (ABC family)
Type: in vitro ADME
Conditions: transporter-overexpressing cell lines, read-out: Drug transporters inhibition MRP1
Experimental: The compound was classically evaluated at 10 µM for all the ADME analyses. Bidirectional permeability (apical A to basolateral B pH 6.5/7.4 and basolateral B to apical A pH 7.4/6.5) was assessed in the epithelial colorectal adenocarcinoma cell line (Caco-2 cell line). Results were expressed as × 10^−6cm/s (Papp) and as % recovery. Efflux ratio, i.e., Papp(B-A)/Papp(A-B), was calculated. Plasma protein binding was analyzed by HPLC-MS/MS after 4-h incubation at 37 °C, as described by Banker et al.. […]
Measured attribute: inhibition at 10 µM (%)
Give bare numbers, in %.

Structure notation: CN(CCCNC(=O)c1ccc(Cl)cc1)Cc1ccccc1
Units label: %
Reported result: 1.9

# evaluate next
Measured inhibition at 10 µM of O=C(NCCCNCc1ccccc1)c1ccc(Cl)cc1 : -3.4
